# IC50 (M); hIL36αβγ; IL-8 production annotations
Molecular target: T1, IL-36R naturally expressed on OVCAR8 cells and on normal human epidermal keratinocytes (NHK cells) (human, UniProt Q9HB29 20-575)
T1 sequence (looked up): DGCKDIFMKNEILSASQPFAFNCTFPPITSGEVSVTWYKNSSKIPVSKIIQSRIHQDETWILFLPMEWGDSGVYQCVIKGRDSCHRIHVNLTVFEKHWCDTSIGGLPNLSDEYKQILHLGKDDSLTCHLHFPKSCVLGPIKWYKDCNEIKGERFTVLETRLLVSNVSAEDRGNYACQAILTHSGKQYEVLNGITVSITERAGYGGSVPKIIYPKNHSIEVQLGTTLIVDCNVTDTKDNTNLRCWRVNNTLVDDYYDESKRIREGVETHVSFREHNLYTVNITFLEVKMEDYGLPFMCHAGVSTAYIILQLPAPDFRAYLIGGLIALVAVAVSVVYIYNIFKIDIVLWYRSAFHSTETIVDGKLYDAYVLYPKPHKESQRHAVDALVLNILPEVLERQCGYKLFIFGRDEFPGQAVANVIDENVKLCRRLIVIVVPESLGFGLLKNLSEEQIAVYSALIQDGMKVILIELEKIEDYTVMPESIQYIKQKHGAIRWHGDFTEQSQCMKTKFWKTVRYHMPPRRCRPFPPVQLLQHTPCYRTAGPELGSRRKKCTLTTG
Assay: cell-based or functional assay
Supply the numeric figure in M, leaving out any unit text.

Check out these entries, answers already filled in.
hz84C4-1.1 (antibody, human IgG4 S228P, kappa, V domains shown, Humanized, human IgG4 / kappa) VH: QVQLVQSGAEVKKPGASVKVSCKASGYFFTSYWMNWVRQAPGQGLEWMGMIHPYDSETRYAQKFQGRVTMTVDKSTSTVYMELSSLRSEDTAVYYCASSTTAFAYWGQGTLVTVSS VL: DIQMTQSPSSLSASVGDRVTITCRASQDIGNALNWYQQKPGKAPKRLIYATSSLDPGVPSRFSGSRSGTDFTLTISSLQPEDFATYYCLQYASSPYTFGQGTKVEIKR
5.25e-11
hz84C4-2.1 (antibody, human IgG4 S228P, kappa, V domains shown, Humanized, human IgG4 / kappa) VH: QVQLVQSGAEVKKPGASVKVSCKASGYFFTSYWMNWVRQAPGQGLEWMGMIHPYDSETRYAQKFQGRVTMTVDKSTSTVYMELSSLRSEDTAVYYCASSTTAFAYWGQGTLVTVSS VL: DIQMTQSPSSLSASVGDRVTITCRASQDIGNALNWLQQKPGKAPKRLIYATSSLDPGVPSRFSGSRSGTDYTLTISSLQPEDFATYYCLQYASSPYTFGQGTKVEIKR
4.82e-11
hz84C4-2.4 (antibody, human IgG4 S228P, kappa, V domains shown, Humanized, human IgG4 / kappa) VH: QVQLVQSGAEVKKPGASVKVSCKASGYYFTSYWMNWVRQAPGQGLEWMGMIHPYDSETRLAQKFKGRVTMTVDKSTSTVYMELSSLRSEDTAVYYCASSTTAFAYWGQGTLVTVSS VL: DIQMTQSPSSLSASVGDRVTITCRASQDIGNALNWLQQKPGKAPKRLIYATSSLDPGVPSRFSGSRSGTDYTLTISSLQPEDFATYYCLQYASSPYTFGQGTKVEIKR
1.57e-10

Next up:
Request: Returns the measured IC50 (M); hIL36αβγ; IL-8 production for the input binder. Input: hz84C4-1.5 (antibody, human IgG4 S228P, kappa, V domains shown, Humanized, human IgG4 / kappa) VH: QVQLVQSGAEVKKPGASVKVSCKVSGYFFTSYWMNWVNQAPGQGLEWMGMIHPYDSETRLAQKFKGRVTMTVDKSTSTVYMELSSLRSEDTAVYYCASSTTAFAYWGQGTLVTVSS VL: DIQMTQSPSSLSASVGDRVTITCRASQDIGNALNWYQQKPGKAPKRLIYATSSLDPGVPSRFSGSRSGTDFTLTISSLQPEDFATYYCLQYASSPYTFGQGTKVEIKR
Result: 2.77e-11
